growth values by entry
# Test system: EKVX NSCLC
# assay.info: NCI-60 one-dose screen, 48 h (100 = growth as untreated, 0 = no growth, -100 = all killed)
# study.conditions: 10 µM unless noted
This is part of a sample that, as a whole, favours compounds with a hit. Of some 83,000 tested, about 20% had one in any assay.
Could you give me the number in %? Just the number is fine.

substance_smiles=Cc1ccccc1NC(=O)Cc1csc2[n+]1C(=O)/C(=C/c1ccc([N+](=O)[O-])cc1)S2 experimental_system="EKVX NSCLC" endpoint_name=growth measurement_unit=% observed=92.8
substance_smiles=Clc1ccccc1C(c1ccccc1)(c1ccccc1)n1ccnc1 experimental_system="EKVX NSCLC" endpoint_name=growth measurement_unit=% observed=25.9

// moving on: another record for growth
The reported value for CN(C)c1ccc2cc3c(cc2c1)Oc1ccccc1N3.[Cl][Zn][Cl] in terms of growth is 89.9

* * *

# System: T-47D breast
# assay.info: NCI-60 one-dose screen, 48 h (100 = growth as untreated, 0 = no growth, -100 = all killed)
# study.conditions: 10 µM unless noted
This is part of a sample that, as a whole, favours compounds with a hit. Of some 83,000 tested, about 20% had one in any assay.
endpoint.name: growth (%)
Could you give me the number in %? Just the number is fine.

compound=CSc1nc(C)c(C(=O)CCN2CCN(c3ccccn3)CC2)s1 experimental_system="T-47D breast" observed=66.7
compound=O=[N+]([O-])C=C(c1ccccc1)c1ccccc1 experimental_system="T-47D breast" observed=66.2
compound=CCCCCCCCCCCCNCCCc1ccccc1 experimental_system="T-47D breast" observed=54.9

The reported value for O=C(NNc1ccccc1)OCc1ccccc1 in terms of growth is 69

The reported value for CCC(C)(O)Cc1ccc(Cl)cc1 (stereo not drawn) in terms of growth is 94.9

The reported value for Cc1cc(N/N=C/c2ccccn2)nc2ccccc12 in terms of growth is 24.1

* * *

# Test system: NCI-H226 lung
# assay.info: NCI-60 one-dose screen, 48 h (100 = growth as untreated, 0 = no growth, -100 = all killed)
# study.conditions: 10 µM unless noted
About 83,000 compounds went through this panel and 20% of them were active in at least one assay; those are over-represented in the sample as a whole.
growth values by entry
Could you give me the number in %? Just the number is fine.

molecule="CCCCCCCCCCCC[S+](C)CC(=O)[O-] (stereo unspecified)" observed=44.3
molecule="CC(=O)c1c(O)c(C)c(O)c2c1OC1=CC(=O)C(C(C)=O)C(=O)C12C (stereo unspecified)" observed=88.6
molecule=COc1cc(NC(=O)C2=C(C)NC(C)=C(C(=O)Nc3cc(OC)c(Cl)cc3OC)C2c2cccc([N+](=O)[O-])c2)c(OC)cc1Cl observed=45.7

The reported value for CCCCCCCCCCCC[n+]1ccccc1 (tested in a mixture with another compound) in terms of growth is 11.3

The reported value for CCCCCCCCCCCCCCCc1ccc(C(=O)C[n+]2ccccc2)cc1 in terms of growth is -6.49

The reported value for S=C=Nc1ccc(N2CCOCC2)cc1 in terms of growth is 86

* * *

# Tested on: SR leukemia
# assay.info: NCI-60 one-dose screen, 48 h
# study.conditions: 10 µM unless noted
The panel holds about 83,000 compounds, 20% with a hit somewhere; the sample as a whole holds those more often. The source made the active and inactive calls. How the source made its calls: active means growth percent below 10; inactive means the rest. *1 amine or outer side, *2 acyl side, *3 side chain or, on linkers, in order; H or OH if unused. Where a SMILES comes first, the peptide text is derived from it. Bridges are numbered along the chain shown (N, C = ends). Roman numbers before positions name the chains, in order. [ ]: non-standard residue; d: D form. Actinocin(1to9) = Cc1c2oc3c(C)ccc(C(=O)[*:2])c3nc-2c(C(=O)[*:1])c(N)c1=O; NMeV = CN[CH](C(=O)O)C(C)C; Sar = CNCC(=O)O
Outcome (select one): active, inactive

compound=O=C1C=CC(O)=CC1=P(c1ccccc1)(c1ccccc1)c1ccccc1 classification=inactive
compound="CC(O)C(O)C(O)C(O)C(O)C(=O)NNc1ccccc1 (stereo unspecified)" classification=inactive
compound=S=C1SCN(Cc2cccs2)CN1Cc1cccs1 classification=inactive
compound=O=C1/C(=C/c2ccccn2)CCc2ccccc21 classification=inactive
compound=CCCCCCCCCCCCSC(=N)N classification=active
compound=CN1CCC(c2ccccc2)(c2ccccc2)C(=O)C1 classification=inactive
compound="CCN(CC)CC(O)c1cc(-c2ccc(Cl)cc2)nc2cc(Cl)ccc12 (stereo unspecified)" classification=active
compound=O=C1C(=O)c2cc([N+](=O)[O-])ccc2-c2ccccc21 classification=active

Each compound tested received a call. Report the one for CC(=O)C1Cc2ccccc2C1=O (stereo unspecified) .
inactive

Each compound tested received a call. Report the one for c1ccc(C2NCCNC2c2ccccc2)cc1 (stereo unspecified) .
inactive

Each compound tested received a call. Report the one for S=C(S)OCN1CCOCC1 .
inactive

Each compound tested received a call. Report the one for O=C(C[P+](c1ccccc1)(c1ccccc1)c1ccccc1)c1ccccc1 .
inactive

Each compound tested received a call. Report the one for O=C(CCl)N1c2ccccc2Sc2c1ccc1ccccc21 .
inactive

Each compound tested received a call. Report the one for CSc1nc(C)c(C(=O)CCN2CCN(c3ccccn3)CC2)s1 .
inactive

Each compound tested received a call. Report the one for CC(C)(C)c1ccc(O)c(-c2ccccc2)c1 .
inactive

Each compound tested received a call. Report the one for COc1ccc2c(c1OC)OCC(CN(C)C)C2=O (stereo unspecified) .
inactive

Each compound tested received a call. Report the one for CCC(C)C1NC(=O)C(NC(=O)c2c3nc4c(C(=O)NC5C(=O)NC(C(C)CC)C(=O)N6CCCC6C(=O)N(C)CC(=O)N(C)C(C(C)C)C(=O)OC5C)ccc(C)c4oc-3c(C)c(=O)c2N)C(C)OC(=O)C(C(C)C)N(C)C(=O)CN(C)C(=O)C2CCCN2C1=O (stereo unspecified) (I: TIP[Sar][NMeV] / II: TIP[Sar][NMeV]; ester I:1-I:C, II:1-II:C; linker I:N-II:N via Actinocin(1to9); configuration not given here) .
active

Each compound tested received a call. Report the one for OC(CSc1ccccc1)CN1CCN(c2ccc(Cl)cc2)CC1 (stereo unspecified) .
inactive

Each compound tested received a call. Report the one for COc1cc(-c2ccc(-[n+]3nc(-c4ccc([N+](=O)[O-])cc4)nn3-c3ccc([N+](=O)[O-])cc3)c(OC)c2)ccc1-[n+]1nc(-c2ccc([N+](=O)[O-])cc2)nn1-c1ccc([N+](=O)[O-])cc1 .
inactive

Each compound tested received a call. Report the one for O=Nc1ccc2ccccc2c1O .
inactive

Each compound tested received a call. Report the one for CC(=O)c1ccc2c(c1)CCc1ccccc1-2 .
inactive

Each compound tested received a call. Report the one for COc1cc(/C=C2\SC(=S)N(/C=C/c3nc4ccccc4[nH]c3=O)C2=O)cc(OC)c1OC .
inactive

Each compound tested received a call. Report the one for N#CC(=C1SCS1)[N+](=O)[O-] .
active

Each compound tested received a call. Report the one for C[C@@]1(CO)[C@H](O)CC[C@@]2(C)[C@H]1CC[C@H]1C[C@@H]3C[C@@]12CC[C@@]3(O)COC(=O)CN .
inactive

Each compound tested received a call. Report the one for CCCCCCCCCCCCCCCCCC1=NCCCN1CCO .
inactive

Each compound tested received a call. Report the one for COc1cc(/C=C/c2ccnc3ccccc23)cc(OC)c1OC .
active

Value source: PubChem BioAssay (NCI)
